Numbers sourced from ChEMBL document CHEMBL1828503.

Tested on: Mycobacterium tuberculosis
Test: Antimicrobial activity against Mycobacterium tuberculosis H37Rv ATCC 27294 assessed as growth inhibition after 7 days by resazurin assay
Assay type: functional
Below is a list of entries, each paired with its recorded growth inhibition (GI) value.
parameter_measured: growth inhibition (GI) (%)

compound	tgt	op	obs_value
CO[C@H]1/C=C/O[C@@]2(C)Oc3c(C)c(O)c4c(O)c(c(/C=N/N5CCN(C)CC5)c(O)c4c3C2=O)NC(=O)/C(C)=C\C=C\[C@H](C)[C@H](O)[C@@H](C)[C@@H](O)[C@@H](C)[C@H](OC(C)=O)[C@@H]1C	Mycobacterium tuberculosis	>	95
COc1ccc2nc(C)cc(NC(=O)CN3CC(CN4CCN(C(C)C)CC4)OC3=O)c2c1 (centres undefined)	Mycobacterium tuberculosis	=	85
COc1ccc2nc(C)cc(N3CC(CNC(=O)c4ccc(C(F)(F)F)cc4)OC3=O)c2c1 (centres undefined)	Mycobacterium tuberculosis	=	90
COc1ccc2nc(C)cc(N3CC(CNC(=O)c4ccccc4F)OC3=O)c2c1 (centres undefined)	Mycobacterium tuberculosis	=	90
COc1ccc2nc(C)cc(NC(=O)CN3CC(CN4CCN(C(C)=O)CC4)OC3=O)c2c1 (centres undefined)	Mycobacterium tuberculosis	=	80
COc1ccc2nc(C)cc(N3CC(CNC(=O)c4ccc(C)cc4)OC3=O)c2c1 (centres undefined)	Mycobacterium tuberculosis	=	0
NNC(=O)c1ccncc1	Mycobacterium tuberculosis	>	95
COc1ccc2nc(C)cc(NC(=O)CN3CC(CNC4CCCC4)OC3=O)c2c1 (centres undefined)	Mycobacterium tuberculosis	=	0
COc1ccc2nc(C)cc(NC(=O)CN3CC(CN4CCN(C)CC4)OC3=O)c2c1 (centres undefined)	Mycobacterium tuberculosis	=	90
COc1ccc(C(=O)NCC2CN(c3cc(C)nc4ccc(OC)cc34)C(=O)O2)c(C)c1 (centres undefined)	Mycobacterium tuberculosis	=	85
COc1ccc2nc(C)cc(NC(=O)CN3CC(CN4CCCCC4)OC3=O)c2c1 (centres undefined)	Mycobacterium tuberculosis	=	0
COc1ccc2nc(C)cc(N3CC(CNC(=O)c4ccccc4)OC3=O)c2c1 (centres undefined)	Mycobacterium tuberculosis	=	0
COc1ccc2nc(C)cc(N3CC(CNC(C)=O)OC3=O)c2c1 (centres undefined)	Mycobacterium tuberculosis	=	95
CCc1ccc(C(=O)NCC2CN(c3cc(C)nc4ccc(OC)cc34)C(=O)O2)cc1 (centres undefined)	Mycobacterium tuberculosis	=	0
COc1ccc2nc(C)cc(NC(=O)CN3CC(CN4CCCC4)OC3=O)c2c1 (centres undefined)	Mycobacterium tuberculosis	=	0
COc1ccc2nc(C)cc(NC(=O)CN3CC(CN4CCOCC4)OC3=O)c2c1 (centres undefined)	Mycobacterium tuberculosis	=	95
COc1ccc2nc(C)cc(NC(=O)CN3CC(CN4CCN(C(C)(C)C)CC4)OC3=O)c2c1 (centres undefined)	Mycobacterium tuberculosis	=	0
CCN(CC)CC1CN(CC(=O)Nc2cc(C)nc3ccc(OC)cc23)C(=O)O1 (centres undefined)	Mycobacterium tuberculosis	=	90
COc1ccc2nc(C)cc(N3CC(CNC(=O)c4ccc(F)cc4)OC3=O)c2c1 (centres undefined)	Mycobacterium tuberculosis	=	90

* * *

Tested on: Mycolicibacterium fortuitum
Assay: Antimicrobial activity against Mycobacterium fortuitum ATCC 19542 after 7 days by resazurin assay
Type: functional
Conditions: ATCC 19542, 168 h
parameter_measured: MIC (mg/L)

molecule	parameter_measured	obs_value
COc1ccc2nc(C)cc(N3CC(CNC(=O)C4CC4)OC3=O)c2c1 (stereo unspecified)	MIC	10
COc1ccc2nc(C)cc(N3CC(CNC(=O)c4ccc(C)cc4)OC3=O)c2c1 (stereo unspecified)	MIC	100
COc1ccc2nc(C)cc(NC(=O)CN3CC(CNC4CC4)OC3=O)c2c1 (stereo unspecified)	MIC	100
NNC(=O)c1ccncc1	MIC	12.5
COc1ccc(C(=O)NCC2CN(c3cc(C)nc4ccc(OC)cc34)C(=O)O2)cc1 (stereo unspecified)	MIC	10
COc1ccc2nc(C)cc(NC(=O)CN3CC(CNCC4CCCCC4)OC3=O)c2c1 (stereo unspecified)	MIC	100
